Below: a set of entries, each annotated with reported half-life at 5 µM.
- Protocol Text: in vitro
- Condition Context: human, blood, Half-life T 1/2 in human whole blood
Quantity Kind: half-life at 5 µM (min)

INSERT INTO measurements (compound, quantity_kind, observed_value) VALUES
  ('CCOC(=O)CCCC(C)(O)C(=O)Nc1cnc(C#N)c(SC)c1 (single isomer, unassigned) [Compound 013]', 'half-life at 5 µM', 118),
  ('CSc1cc(NC(=O)C(C)(O)CCCC(=O)OC(C)C)cnc1C#N (single isomer, unassigned) [Compound 017]', 'half-life at 5 µM', 206),
  ('CCOC(=O)CCCC(C)(O)C(=O)Nc1cnc(C#N)c(C(F)(F)F)c1 (single isomer, unassigned) [Compound 005]', 'half-life at 5 µM', 119),
  ('CC(C)OC(=O)CCCC(C)(O)C(=O)Nc1cnc(C#N)c(C(F)(F)F)c1 (single isomer, unassigned) [Compound 009]', 'half-life at 5 µM', 210),
  ('COC(=O)CCCC(C)(O)C(=O)Nc1cnc(C#N)c(C(F)(F)F)c1 (single isomer, unassigned) [Compound 007]', 'half-life at 5 µM', 82.7);

====

// microsomal CLint at 1 µM lookup, one value per entry
- Protocol Text: in vitro
- Condition Context: human, microsomes, pH 7.4, In vitro Clint
Quantity Kind: microsomal CLint at 1 µM (µL/min/mg)

INSERT INTO measurements (compound, observed_value) VALUES
  ('CCOC(=O)CCCC(C)(O)C(=O)Nc1cnc(C#N)c(SC)c1 (single isomer, unassigned) [Compound 013]', 487),
  ('CC(C)OC(=O)CCCC(C)(O)C(=O)Nc1cnc(C#N)c(C(F)(F)F)c1 (single isomer, unassigned) [Compound 009]', 234),
  ('COC(=O)CCCC(C)(O)C(=O)Nc1cnc(C#N)c(C(F)(F)F)c1 (single isomer, unassigned) [Compound 007]', 226),
  ('CSc1cc(NC(=O)C(C)(O)CCCC(=O)OC(C)C)cnc1C#N (single isomer, unassigned) [Compound 017]', 243);

====

- Condition Context: human, microsomes, 1 µM, pH 7.4
Below, each entry is listed with its recorded In vitro Clint.
Quantity Kind: In vitro Clint (µL/min/mg protein)

INSERT INTO measurements (molecule, quantity_kind, observed_value) VALUES
  ('COC(=O)CCCC(C)(O)C(=O)Nc1cnc(C#N)c(SC)c1 (single isomer, unassigned) [Compound 015]', 'In vitro Clint', 270.78),
  ('CC(C)OC(=O)CCCC(C)(O)C(=O)Nc1cnc(C#N)c(C(F)(F)F)c1 (single isomer, unassigned)', 'In vitro Clint', 124.8),
  ('CSc1cc(NC(=O)C(C)(O)CCCC(=O)OC(C)C)cnc1C#N (single isomer, unassigned)', 'In vitro Clint', 247.8),
  ('CCOC(=O)CCCC(C)(O)C(=O)Nc1cnc(C#N)c(C(F)(F)F)c1 (single isomer, unassigned) [Compound 005]', 'In vitro Clint', 670.7),
  ('COC(=O)CCCC(C)(O)C(=O)Nc1cnc(C#N)c(C(F)(F)F)c1 (single isomer, unassigned)', 'In vitro Clint', 131.2),
  ('COC(=O)CCCC(C)(O)C(=O)Nc1cnc(C#N)c(SC)c1 (single isomer, unassigned) [Compound 016]', 'In vitro Clint', 1216.15),
  ('CCOC(=O)CCCC(C)(O)C(=O)Nc1cnc(C#N)c(C(F)(F)F)c1 (single isomer, unassigned) [Compound 006]', 'In vitro Clint', 199.5);

Source listed as patent EP4786452A1.
